Experiment: NCI Yeast Anticancer Drug Screen. Data for the rad50 strain (AID 155);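 note: 0% = growth of vehicle-only cultures of the same strain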
Conditions: S. cerevisiae rad50 strain growth inhibition; at 50.0 µM; active compounds read high
This is part of a sample that, as a whole, favours compounds with a hit. Of some 79,000 tested, about 15% had one in any assay. The source made the active and inactive calls. Cut-off read from the data, not from the text of the source: active = growth inhibition above about 70%; inactive = the rest.
measuredParameter: growth inhibition

{"molecule": "C[Si](C)(C)N1CCCC1", "growth inhibition": "-22.1% (inactive)"}
{"molecule": "O=C1C2CCCC2C1(c1ccccc1)c1ccccc1 (centres undefined)", "growth inhibition": "-7.25% (inactive)"}

Query: Sample NC(N)=NC1NCC(=O)S1 (centres undefined) — what was its growth inhibition?
Reply: 0.2% (inactive)

Query: Moving on to the next molecule: CC1=C(O)C(=O)C2C(=O)C1C1Cc3ccccc3C21 (centres undefined)
Reply: -21.1% (inactive)

Query: Cool, now CN(C)CCNC(=O)c1cccc2c1Oc1cccc([N+](=O)[O-])c1O2
Reply: -12.7% (inactive)

Query: Now consider NNC(=S)N/N=C/C(Cl)=C(\Cl)C(=O)O .
Reply: -2.2% (inactive)

Query: // query: CSCCC(NC(C)=O)C(C)=O (centres undefined)
Reply: 5.75% (inactive)

Query: Follow-up item: CC(=O)Oc1cc(C(C)C)ccc1C
Reply: 26.7% (inactive)

Query: Please give the result for O=C(/C=C\c1ccc([N+](=O)[O-])cc1)c1ccccc1 too.
Reply: -1.6% (inactive)

Query: Please give the result for C/C=C\C=N\NC(=O)C(=O)N/N=C/C=C\C too.
Reply: 0.9% (inactive)

Query: Follow-up entry: CC(=O)Nc1cc2cc(NS(=O)(=O)c3cc(C(F)(F)F)cc(C(F)(F)F)c3)ccc2oc1=O
Reply: 0% (inactive)

Query: And O=C1CCC(=O)N1n1c(Cc2ccc(Cl)cc2)n[nH]c1=O ?
Reply: 17.4% (inactive)

Query: Next: O=c1c2ccccc2oc2nc3ccc(Cl)cc3n12
Reply: -6.3% (inactive)

Query: Continue with c1ccc(B2OCC(C3OB(c4ccccc4)OC4COB(c5ccccc5)OC43)O2)cc1 (centres undefined)
Reply: 32.5% (inactive)

Query: Another molecule: O=C(CCC(CCC(=O)c1ccccc1)[N+](=O)[O-])c1ccccc1
Reply: 3.15% (inactive)

Query: // next record CCOC(=O)c1c(NNc2ccccc2)nc2ccccc2c1-c1ccccc1
Reply: 25.1% (inactive)

* * *

Test: NCI Yeast Anticancer Drug Screen. Data for the bub3 strain (AID 167)
Conditions: S. cerevisiae bub3 mutant strain, at 50.0 µM, active compounds read high
Compounds without any hit were thinned out: in the full panel of roughly 79,000, 15% have a hit.
measuredParameter: growth inhibition (%)
Give just the number in %; leave the unit off.

Solved cases (8 shown):
{"compound": "N=c1ncn(C/C=C/c2ccccc2)c2nc[nH]c12", "measuredParameter": "growth inhibition", "recordedResult": -63.3}
{"compound": "O=[N+]([O-])/C=C/c1cn(CCCCCn2cc(/C=C/[N+](=O)[O-])c3ccccc32)c2ccccc12", "measuredParameter": "growth inhibition", "recordedResult": 8.35}
{"compound": "NC1=NCC(c2ccccn2)C1c1ccc(F)cc1 (stereo unspecified)", "measuredParameter": "growth inhibition", "recordedResult": -18.7}
{"compound": "Cc1nc([N+](=O)[O-])cn1CC(Cl)Cn1cc([N+](=O)[O-])nc1C", "measuredParameter": "growth inhibition", "recordedResult": -25.1}
{"compound": "CC(=O)O[C@]1(C(C)=O)CC[C@H]2[C@@H]3C[C@H](C)C4=CC(=O)C=C[C@]4(C)[C@@]3(F)[C@@H](O)C[C@@]21C", "measuredParameter": "growth inhibition", "recordedResult": -16.9}
{"compound": "CC(C)CCCC(C)C1CCC2C3CC=C4CC(OC(=O)C(Cl)(Cl)Cl)CCC4(C)C3CCC12C (stereo unspecified)", "measuredParameter": "growth inhibition", "recordedResult": -28.1}
{"compound": "CC(O)C(=O)NN (stereo unspecified)", "measuredParameter": "growth inhibition", "recordedResult": -4.65}
{"compound": "Cn1c(=O)c(-c2ccccc2)cc2ccccc21", "measuredParameter": "growth inhibition", "recordedResult": -1.15}

Query: State the recorded growth inhibition for this entry: O=C(O)CNCc1ccc2c(c1)OCCO2
Reply: -3.5

Query: Same question, O=C(CCN1C(=O)NC(c2ccccc2)(c2ccccc2)C1=O)NCCN1CCOCC1 this time
Reply: -2

Query: Also C=CC1(C)C(C)=C(C)C(C)=C1C ?
Reply: -2
